Target: PAF specific receptor binding site on rabbit platelet plasma membranes (Oryctolagus cuniculus, UniProt G1TEI7)
Construct: from tissue; host or cells: rabbit platelets (plasma membrane suspension)
Sequence (G1TEI7 1-342): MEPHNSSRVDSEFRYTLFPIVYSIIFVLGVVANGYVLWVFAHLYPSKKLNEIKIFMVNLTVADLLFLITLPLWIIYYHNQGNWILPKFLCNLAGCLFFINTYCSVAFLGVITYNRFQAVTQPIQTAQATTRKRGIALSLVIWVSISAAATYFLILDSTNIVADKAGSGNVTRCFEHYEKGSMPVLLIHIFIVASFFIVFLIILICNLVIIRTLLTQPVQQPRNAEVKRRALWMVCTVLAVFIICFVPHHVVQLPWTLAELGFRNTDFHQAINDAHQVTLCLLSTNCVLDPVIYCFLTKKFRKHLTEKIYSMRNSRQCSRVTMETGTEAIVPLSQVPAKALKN
Experiment: Inhibition of 3H-PAF binding to rabbit platelet plasma membranes
Conditions: Table II, Z (cis); dose 5 μM; read-out: % Inhibition of PAF Receptor
OBSERVABLE: inhibition at 5 µM (%)
Numbers only, in %.

Please review the entries below; each comes with its answer.
CCOc1ccc2c(c1)C(CC(=O)O)=C(C)/C2=C/c1ccc([S+](C)[O-])cc1 (centres unmarked) [Z CH2COOH / SOCH3 / OC2H5]: 42
COC(=O)CC1=C(C)/C(=C/c2ccc(S(N)(=O)=O)cc2)c2ccc(OC)cc21 [Z CH2COOCH3 / SO2NH2 / OCH3]: 66
CSc1ccc(/C=C2/C(C)=C(CCNC(C)=O)c3cc(F)ccc32)cc1 [Z CH2CH2NHCOCH3 / SCH3 / F]: 50
COc1ccc2c(c1)C(CCSc1ccccc1)=C(C)/C2=C/c1ccc(S(N)(=O)=O)cc1 [Z CH2CH2SC6H5 / SO2NH2 / OCH3]: 33
COc1ccc2c(c1)C(CC(=O)O)=C(C)/C2=C/c1ccc(S(N)(=O)=O)cc1 [Z CH2COOH / SO2NH2 / OCH3]: 32
COc1ccc2c(c1)C(CCn1ccnc1)=C(C)/C2=C/c1ccc(S(N)(=O)=O)cc1 [Z drawing 18 / SO2NH2 / OCH3]: 68
COc1ccc2c(c1)C(CC[S+](C)[O-])=C(C)/C2=C/c1ccc(S(N)(=O)=O)cc1 (centres unmarked) [Z CH2CH2SOCH3 / SO2NH2 / OCH3]: 56

Continue with the compound presented below.
Query string: Endpoint output: inhibition at 5 µM of CC(=O)NCCC1=C(C)/C(=C/c2ccc([S+](C)[O-])cc2)c2ccc(F)cc21 (centres unmarked) [Z CH2CH2NHCOCH3 / SOCH3 / F] . Value?
Result string: 39

====

For each entry below, report its inhibition at 0.5 µM value.
Biological target: PAF specific receptor binding site on rabbit platelet plasma membranes (Oryctolagus cuniculus)
Construct: from tissue; host or cells: rabbit platelets (plasma membrane suspension)
Assay: Inhibition of 3H-PAF binding to rabbit platelet plasma membranes
Settings: Table 1, E (trans); dose 0.5 μM; read-out: % Inhibition of PAF Binding
Numbers only, in %.

COc1ccc2c(c1)C(CCS(C)(=O)=O)=C(C)/C2=C\c1ccc(S(N)(=O)=O)cc1: 61
CNS(=O)(=O)c1ccc(/C=C2\C(C)=C(CC(=O)OC)c3cc(OC)ccc32)cc1: 67
COc1ccc2c(c1)C(CCn1ccnc1)=C(C)/C2=C\c1ccc(S(N)(=O)=O)cc1 [E drawing 16 / SO2NH2 / OCH3]: 31
COc1ccc2c(c1)C(CC[S+](C)[O-])=C(C)/C2=C\c1ccc(S(N)(=O)=O)cc1 (stereo not drawn): 24
COC(=O)CC1=C(C)/C(=C\c2ccc(S(N)(=O)=O)cc2)c2ccc(OC)cc21: 70

Query string: Endpoint output: inhibition at 0.5 µM of `COc1ccc2c(c1)C(CCSC)=C(C)/C2=C\c1ccc(S(N)(=O)=O)cc1` . Value?
Result string: 78

====

Target: PAF specific receptor binding site on rabbit platelet plasma membranes (Oryctolagus cuniculus, UniProt G1TEI7)
Construct: from tissue; host or cells: rabbit platelets (plasma membrane suspension)
Assay: Inhibition of 3H-PAF binding to rabbit platelet plasma membranes
Conditions: Table 1, E (trans); dose 1 μM; read-out: % Inhibition of PAF Binding
OBSERVABLE: inhibition at 1 µM (%)
One number for each entry, in %.

COC(=O)CC1=C(C)/C(=C\c2ccc(OC)c(OC)c2)c2ccc(OC)cc21: 45
COc1ccc2c(c1)C(CCn1ccnc1)=C(C)/C2=C\c1ccc(S(N)(=O)=O)cc1 [E drawing 16 / SO2NH2 / OCH3]: 45
COC(=O)CC1=C(C)/C(=C\c2ccc(S(N)(=O)=O)cc2)c2ccc(OC)cc21: 84
CNS(=O)(=O)c1ccc(/C=C2\C(C)=C(CC(=O)OC)c3cc(F)ccc32)cc1: 56
COc1ccc2c(c1)C(CCS(C)(=O)=O)=C(C)/C2=C\c1ccc(S(N)(=O)=O)cc1: 81
COC(=O)CC1=C(C)/C(=C\c2ccc(S(N)(=O)=O)cc2)c2ccc(F)cc21: 60
COc1ccc2c(c1)C(CCSC)=C(C)/C2=C\c1ccc(S(N)(=O)=O)cc1: 100

Continue with the compound presented below.
Query string: Endpoint output: inhibition at 1 µM of `COc1ccc2c(c1)C(CCO)=C(C)/C2=C\c1ccc(S(N)(=O)=O)cc1` . Value?
Result string: 59

====

Biological target: PAF specific receptor binding site on rabbit platelet plasma membranes (Oryctolagus cuniculus, UniProt G1TEI7)
Construct: from tissue; host or cells: rabbit platelets (plasma membrane suspension)
Assay: Inhibition of 3H-PAF binding to rabbit platelet plasma membranes
Settings: Table 1, E (trans); dose 5 μM; read-out: % Inhibition of PAF Binding
OBSERVABLE: inhibition at 5 µM (%)
Give bare numbers, in %.

Please review the entries below; each comes with its answer.
COc1ccc2c(c1)C(CCS(C)(=O)=O)=C(C)/C2=C\c1ccc(S(N)(=O)=O)cc1: 100
COc1ccc2c(c1)C(CCSc1ccccc1)=C(C)/C2=C\c1ccc(S(N)(=O)=O)cc1: 56
COC(=O)CC1=C(C)/C(=C\c2ccc([S+](C)[O-])cc2)c2ccc(F)cc21 (centres unmarked): 45
COC(=O)CC1=C(C)/C(=C\c2ccc(S(N)(=O)=O)cc2)c2ccc(OC)cc21: 100
COc1ccc2c(c1)C(CC[S+](C)[O-])=C(C)/C2=C\c1ccc(S(N)(=O)=O)cc1 (centres unmarked): 74

For each entry beneath this line, provide reported inhibition at 5 µM.
1. COc1ccc2c(c1)C(CCn1ccnc1)=C(C)/C2=C\c1ccc(S(N)(=O)=O)cc1 [E drawing 16 / SO2NH2 / OCH3]
2. COc1ccc2c(c1)C(CC(=O)O)=C(C)/C2=C\c1ccc(S(N)(=O)=O)cc1
3. CNS(=O)(=O)c1ccc(/C=C2\C(C)=C(CC(=O)OC)c3cc(OC)ccc32)cc1

Result string:
90
4
100

====

Target: PAF specific receptor binding site on rabbit platelet plasma membranes (Oryctolagus cuniculus)
Construct: from tissue; host or cells: rabbit platelets (plasma membrane suspension)
Experiment: Inhibition of 3H-PAF binding to rabbit platelet plasma membranes
Conditions: Table 1, E (trans); dose 0.1 μM; read-out: % Inhibition of PAF Binding
OBSERVABLE: inhibition at 0.1 µM (%)
Numbers only, in %.

Please review the entries below; each comes with its answer.
COc1ccc2c(c1)C(CCS(C)(=O)=O)=C(C)/C2=C\c1ccc(S(N)(=O)=O)cc1: 35
COc1ccc2c(c1)C(CCSC)=C(C)/C2=C\c1ccc(S(N)(=O)=O)cc1: 34
COc1ccc2c(c1)C(CCn1ccnc1)=C(C)/C2=C\c1ccc(S(N)(=O)=O)cc1 [E drawing 16 / SO2NH2 / OCH3]: 17

Continue with the compound presented below.
Query string: Endpoint output: inhibition at 0.1 µM of `COC(=O)CC1=C(C)/C(=C\c2ccc(S(N)(=O)=O)cc2)c2ccc(OC)cc21` . Value?
Result string: 35
